Test system: Staphylococcus epidermidis
Assay: Antibacterial activity against methicillin-sensitive Staphylococcus epidermidis ATCC 12228 assessed as growth inhibition after 18 hrs by agar dilution method
Assay type: functional
Details: ATCC 12228, 18 h
reported-endpoint: MIC (µg/mL)
One number for each entry, in µg/mL.

Input line: Name the recorded MIC for CN[C@H](CC(C)C)C(=O)N[C@H]1C(=O)N[C@@H](CC(N)=O)C(=O)N[C@H]2C(=O)N[C@H]3C(=O)N[C@H](C(=O)N[C@H](C(=O)O)c4cc(O)cc(O)c4-c4cc3ccc4O)[C@H](O)c3ccc(c(Cl)c3)Oc3cc2cc(c3O[C@@H]2O[C@H](CO)[C@@H](O)[C@H](O)[C@H]2O[C@H]2C[C@](C)(N)[C@H](O)[C@H](C)O2)Oc2ccc(cc2Cl)[C@H]1O [VANCOMYCIN] .
Output line: 0.5

Now consider a different molecule.
Input line: Name the recorded MIC for "CC[C@@H]1[C@@H](C)O[C@@](O)([C@@H](C)[C@H](O)[C@H](C)[C@H]2OC(=O)/C=C/C=C/[C@H](C)[C@@H]([C@@H](C)[C@@H](O)[C@H](C)[C@@]3(O)C[C@@H](O[C@H]4C[C@H](O)[C@H](O)[C@H](C)O4)[C@H](C)[C@@H](C)O3)OC(=O)/C=C/C=C/[C@@H]2C)C[C@H]1O[C@H]1C[C@H](O)[C@H](O)[C@H](C)O1" .
Output line: 4

----------
Tested on: Staphylococcus epidermidis
Assay: Antibacterial activity against methicillin-resistant Staphylococcus epidermidis 09-3 assessed as growth inhibition after 18 hrs by agar dilution method
Type: functional
Details: 09-3, 18 h
For each entry below, report its MIC value.
Numbers only, in µg/mL.

For orientation, consider the following solved cases.
Input line: Name the recorded MIC for "CC[C@@H]1[C@@H](C)O[C@@](O)([C@@H](C)[C@H](O)[C@H](C)[C@H]2OC(=O)/C=C/C=C/[C@H](C)[C@@H]([C@@H](C)[C@@H](O)[C@H](C)[C@@]3(O)C[C@@H](O[C@H]4C[C@H](O)[C@H](O)[C@H](C)O4)[C@H](C)[C@@H](C)O3)OC(=O)/C=C/C=C/[C@@H]2C)C[C@H]1O[C@H]1C[C@H](O)[C@H](O)[C@H](C)O1" .
Output line: 4

Input line: Name the recorded MIC for "CC[C@@H]1[C@@H](C)O[C@@](OC)([C@@H](C)[C@H](O)[C@H](C)[C@H]2OC(=O)/C=C/C=C/[C@H](C)[C@@H]([C@@H](C)[C@@H](O)[C@H](C)[C@@]3(OC)C[C@@H](O[C@H]4C[C@H](O)[C@H](O)[C@H](C)O4)[C@H](C)[C@@H](C)O3)OC(=O)/C=C/C=C/[C@@H]2C)C[C@H]1O[C@H]1C[C@H](O)[C@H](O)[C@H](C)O1" .
Output line: 64

Now consider a different compound.
Input line: Name the recorded MIC for "CC[C@@H]1[C@@H](C)O[C@@](OC)([C@@H](C)[C@H](O)[C@H](C)[C@H]2OC(=O)/C=C/C=C/[C@H](C)[C@@H]([C@@H](C)[C@@H](O)[C@H](C)[C@@]3(O)C[C@@H](O[C@H]4C[C@H](O)[C@H](O)[C@H](C)O4)[C@H](CC)[C@@H](C)O3)OC(=O)/C=C/C=C/[C@@H]2C)C[C@H]1O[C@H]1C[C@H](O)[C@H](O)[C@H](C)O1" .
Output line: 2

----------
For each entry below, report its MIC value.
Test system: Staphylococcus aureus
Assay: Antibacterial activity against methicillin-resistant Staphylococcus aureus 09-13 assessed as growth inhibition after 18 hrs by agar dilution method
Format: functional
Details: 09-13, 18 h
Answers are plain numbers, in µg/mL.

Input line: Name the recorded MIC for "CC[C@@H]1[C@@H](C)O[C@@](OC)([C@@H](C)[C@H](O)[C@H](C)[C@H]2OC(=O)/C=C/C=C/[C@H](C)[C@@H]([C@@H](C)[C@@H](O)[C@H](C)[C@@]3(O)C[C@@H](O[C@H]4C[C@H](O)[C@H](O)[C@H](C)O4)[C@H](CC)[C@@H](C)O3)OC(=O)/C=C/C=C/[C@@H]2C)C[C@H]1O[C@H]1C[C@H](O)[C@H](O)[C@H](C)O1" .
Output line: 2

# per-item lookup of MIC; items listed below
1. CC[C@@H]1[C@@H](C)OC([C@@H](C)[C@H](O)[C@H](C)[C@H]2OC(=O)/C=C/C=C/[C@H](C)[C@@H]([C@@H](C)[C@@H](O)[C@H](C)[C@@]3(O)C[C@@H](O[C@H]4C[C@H](O)[C@H](O)[C@H](C)O4)[C@H](CC)[C@@H](C)O3)OC(=O)/C=C/C=C/[C@@H]2C)=C[C@H]1O[C@H]1C[C@H](O)[C@H](O)[C@H](C)O1
2. CC[C@@H]1[C@@H](C)O[C@@](OC)([C@@H](C)[C@H](O)[C@H](C)[C@H]2OC(=O)/C=C/C=C/[C@H](C)[C@@H]([C@@H](C)[C@@H](O)[C@H](C)[C@@]3(OC)C[C@@H](O[C@H]4C[C@H](O)[C@H](O)[C@H](C)O4)[C@H](C)[C@@H](C)O3)OC(=O)/C=C/C=C/[C@@H]2C)C[C@H]1O[C@H]1C[C@H](O)[C@H](O)[C@H](C)O1
3. CC[C@@H]1[C@@H](C)O[C@@](O)([C@@H](C)[C@H](O)[C@H](C)[C@H]2OC(=O)/C=C/C=C/[C@H](C)[C@@H]([C@@H](C)[C@@H](O)[C@H](C)[C@@]3(O)C[C@@H](O[C@H]4C[C@H](O)[C@H](O)[C@H](C)O4)[C@H](C)[C@@H](C)O3)OC(=O)/C=C/C=C/[C@@H]2C)C[C@H]1O[C@H]1C[C@H](O)[C@H](O)[C@H](C)O1

Output line:
2
32
2

----------
For each entry below, report its MIC value.
System: Enterococcus faecalis
Experiment: Antibacterial activity against vancomycin-resistant Enterococcus faecalis R6512 assessed as growth inhibition after 18 hrs by agar dilution method
Assay type: functional
Conditions: R6512, 18 h

For orientation, consider the following solved cases.
Input line: Name the recorded MIC for CN[C@H](CC(C)C)C(=O)N[C@H]1C(=O)N[C@@H](CC(N)=O)C(=O)N[C@H]2C(=O)N[C@H]3C(=O)N[C@H](C(=O)N[C@H](C(=O)O)c4cc(O)cc(O)c4-c4cc3ccc4O)[C@H](O)c3ccc(c(Cl)c3)Oc3cc2cc(c3O[C@@H]2O[C@H](CO)[C@@H](O)[C@H](O)[C@H]2O[C@H]2C[C@](C)(N)[C@H](O)[C@H](C)O2)Oc2ccc(cc2Cl)[C@H]1O [VANCOMYCIN] .
Output line: > 256 µg/mL

Input line: Name the recorded MIC for "CC[C@@H]1[C@@H](C)O[C@@](OC)([C@@H](C)[C@H](O)[C@H](C)[C@H]2OC(=O)/C=C/C=C/[C@H](C)[C@@H]([C@@H](C)[C@@H](O)[C@H](C)[C@@]3(O)C[C@@H](O[C@H]4C[C@H](O)[C@H](O)[C@H](C)O4)[C@H](CC)[C@@H](C)O3)OC(=O)/C=C/C=C/[C@@H]2C)C[C@H]1O[C@H]1C[C@H](O)[C@H](O)[C@H](C)O1" .
Output line: 1 µg/mL

Input line: Name the recorded MIC for "CC[C@@H]1[C@@H](C)O[C@@](OC)([C@@H](C)[C@H](O)[C@H](C)[C@H]2OC(=O)/C=C/C=C/[C@H](C)[C@@H]([C@@H](C)[C@@H](O)[C@H](C)[C@@]3(OC)C[C@@H](O[C@H]4C[C@H](O)[C@H](O)[C@H](C)O4)[C@H](C)[C@@H](C)O3)OC(=O)/C=C/C=C/[C@@H]2C)C[C@H]1O[C@H]1C[C@H](O)[C@H](O)[C@H](C)O1" .
Output line: > 128 µg/mL

Others:
Input line: Name the recorded MIC for CC[C@H]1OC(=O)[C@H](C)[C@@H](O[C@H]2C[C@@](C)(OC)[C@@H](O)[C@H](C)O2)[C@H](C)[C@@H](O[C@@H]2O[C@H](C)C[C@H](N(C)C)[C@H]2O)[C@](C)(O)C[C@@H](C)CN(C)[C@H](C)[C@@H](O)[C@]1(C)O [AZITHROMYCIN] .
Output line: > 256 µg/mL

----------
For each entry below, report its MIC value.
Tested on: Staphylococcus aureus
Experiment: Antibacterial activity against methicillin-resistant Staphylococcus aureus R6101 assessed as growth inhibition after 18 hrs by agar dilution method
Format: functional
Details: R6101, 18 h
One number for each entry, in µg/mL.

For orientation, consider the following solved cases.
Input line: Given the entry "CC[C@@H]1[C@@H](C)O[C@@](OC)([C@@H](C)[C@H](O)[C@H](C)[C@H]2OC(=O)/C=C/C=C/[C@H](C)[C@@H]([C@@H](C)[C@@H](O)[C@H](C)[C@@]3(O)C[C@@H](O[C@H]4C[C@H](O)[C@H](O)[C@H](C)O4)[C@H](CC)[C@@H](C)O3)OC(=O)/C=C/C=C/[C@@H]2C)C[C@H]1O[C@H]1C[C@H](O)[C@H](O)[C@H](C)O1" , what MIC was observed with Staphylococcus aureus?
Output line: 1

Input line: Given the entry "CC[C@@H]1[C@@H](C)O[C@@](OC)([C@@H](C)[C@H](O)[C@H](C)[C@H]2OC(=O)/C=C/C=C/[C@H](C)[C@@H]([C@@H](C)[C@@H](O)[C@H](C)[C@@]3(OC)C[C@@H](O[C@H]4C[C@H](O)[C@H](O)[C@H](C)O4)[C@H](C)[C@@H](C)O3)OC(=O)/C=C/C=C/[C@@H]2C)C[C@H]1O[C@H]1C[C@H](O)[C@H](O)[C@H](C)O1" , what MIC was observed with Staphylococcus aureus?
Output line: 16

Now consider a different compound.
Input line: Given the entry "CC[C@@H]1[C@@H](C)O[C@@](O)([C@@H](C)[C@H](O)[C@H](C)[C@H]2OC(=O)/C=C/C=C/[C@H](C)[C@@H]([C@@H](C)[C@@H](O)[C@H](C)[C@@]3(O)C[C@@H](O[C@H]4C[C@H](O)[C@H](O)[C@H](C)O4)[C@H](C)[C@@H](C)O3)OC(=O)/C=C/C=C/[C@@H]2C)C[C@H]1O[C@H]1C[C@H](O)[C@H](O)[C@H](C)O1" , what MIC was observed with Staphylococcus aureus?
Output line: 2
